system: HS 578T; conditions: read-out: 50% lethal concentration (LC50), Breast
Each item that follows carries a reported CC50.
Your answer should be a plain number; it is taken to be in µM.

Example cases with answers are listed next.
C=C1CCC2C3(C)COC(c4cn(-c5ccccc5)nc4-c4cccc(F)c4)OC3CCC2(C)C1CC=C1C(=O)OCC1O (stereo not shown) [1c] ... 6.12
C=C1CCC2C3(C)COC(c4cn(-c5ccccc5)nc4-c4ccc(Br)cc4)OC3CCC2(C)C1CC=C1C(=O)OCC1O (stereo not shown) [1h] ... 5.94
C=C1CCC2C3(C)COC(c4cn(-c5ccccc5)nc4-c4ccc(F)cc4)OC3CCC2(C)C1CC=C1C(=O)OCC1O (stereo not shown) [1f] ... 5.72
C=C1CCC2C3(C)COC(c4cn(-c5ccccc5)nc4-c4ccc(C)cc4)OC3CCC2(C)C1CC=C1C(=O)OCC1O (stereo not shown) [1i] ... 6.28

Please look at the following molecule next.
# input Annotate the molecule C=C1CCC2C3(C)COC(c4cn(-c5ccccc5)nc4-c4ccc(Cl)cc4)OC3CCC2(C)C1CC=C1C(=O)OCC1O (stereo not shown) [1g] with its measured CC50.
# output 6.45

* * *

tested on: IGROV1; settings: read-out: 50% lethal concentration (LC50); IGROV1, Ovarian
Consider the following compounds and their measured CC50 readings.
Enter your answer as a number in µM; do not include the unit.

C=C1CCC2C3(C)COC(c4cn(-c5ccccc5)nc4-c4cccc([N+](=O)[O-])c4)OC3CCC2(C)C1CC=C1C(=O)OCC1O (stereo not drawn) ... 8.76

# input Return CC50 for the following compound: C=C1CCC2C3(C)COC(c4cn(-c5ccccc5)nc4-c4ccccc4)OC3CCC2(C)C1CC=C1C(=O)OCC1O (stereo not drawn)
# output 6.66

* * *

Total growth inhibition (TGI) overview
test system: HS 578T; settings: Breast
Write the numeric value and append its unit.

Use the examples below as a reference point.
C=C1CCC2C3(C)COC(c4cn(-c5ccccc5)nc4-c4cccc(Br)c4)OC3CCC2(C)C1CC=C1C(=O)OCC1O (stereo not drawn) ... 5.19 µM
C=C1CCC2C3(C)COC(c4cn(-c5ccccc5)nc4-c4ccccc4)OC3CCC2(C)C1CC=C1C(=O)OCC1O (stereo not drawn) ... 6.54 µM
C=C1CCC2C3(C)COC(c4cn(-c5ccccc5)nc4-c4ccc(Cl)cc4)OC3CCC2(C)C1CC=C1C(=O)OCC1O (stereo not drawn) ... 3.24 µM
C=C1CCC2C3(C)COC(c4cn(-c5ccccc5)nc4-c4ccc(C)cc4)OC3CCC2(C)C1CC=C1C(=O)OCC1O (stereo not drawn) ... 3.41 µM
C=C1CCC2C3(C)COC(c4cn(-c5ccccc5)nc4-c4cccc(Cl)c4)OC3CCC2(C)C1CC=C1C(=O)OCC1O (stereo not drawn) ... 4.85 µM

# input Could you please provide reported Total growth inhibition (TGI) for C=C1CCC2C3(C)COC(c4cn(-c5ccccc5)nc4-c4ccc(F)cc4)OC3CCC2(C)C1CC=C1C(=O)OCC1O (stereo not drawn) ? Thanks!
# output 2.94 µM

# input Identify Total growth inhibition (TGI) associated with the compound C=C1CCC2C3(C)COC(c4cn(-c5ccccc5)nc4-c4cccc(F)c4)OC3CCC2(C)C1CC=C1C(=O)OCC1O (stereo not drawn)
# output 3.18 µM

# input Complete the entry with Total growth inhibition (TGI) for C=C1CCC2C3(C)COC(c4cn(-c5ccccc5)nc4-c4ccc(OC)cc4)OC3CCC2(C)C1CC=C1C(=O)OCC1O (stereo not drawn)
# output 4.88 µM

# input Fill in reported Total growth inhibition (TGI) for this entry: C=C1CCC2C3(C)COC(c4cn(-c5ccccc5)nc4-c4ccc(Br)cc4)OC3CCC2(C)C1CC=C1C(=O)OCC1O (stereo not drawn)
# output 3.01 µM

Provenance of the data: paper PMC12298351
